These entries and their values trace back to paper PMC7286788.

- tested-target: MsmegMurG (Mycolicibacterium smegmatis)
- Sequence (A0R016 whole entry): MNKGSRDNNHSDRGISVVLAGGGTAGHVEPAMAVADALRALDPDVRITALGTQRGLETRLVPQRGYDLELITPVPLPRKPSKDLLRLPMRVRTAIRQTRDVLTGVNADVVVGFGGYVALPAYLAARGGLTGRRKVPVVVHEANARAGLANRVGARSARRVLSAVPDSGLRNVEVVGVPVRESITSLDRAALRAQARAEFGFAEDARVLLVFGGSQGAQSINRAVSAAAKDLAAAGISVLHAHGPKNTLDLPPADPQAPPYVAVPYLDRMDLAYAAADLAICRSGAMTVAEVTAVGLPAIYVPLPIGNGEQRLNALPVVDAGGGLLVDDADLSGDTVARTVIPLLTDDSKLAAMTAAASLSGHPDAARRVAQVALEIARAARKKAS
- protocol-notes: biochemical
- Parameters: species or system Mycobacterium smegmatis
- test-parameters: read-out: (MsmegMurG) inhibition (%)
# reported inhibition at 50 µM; entries follow
readout-label: inhibition at 50 µM (%)

{"smiles-string": "CO[C@H]1[C@@H](O)[C@H](n2ccc(=O)[nH]c2=O)O[C@@H]1[C@@H](O[C@H]1OC(C(=O)N[C@H]2CCCCNC2=O)=C[C@H](O)[C@@H]1O)C(N)=O", "tested-target": "MsmegMurG (Mycolicibacterium smegmatis)", "readout-label": "inhibition at 50 µM", "reported-value": 0}
{"smiles-string": "O=C(NC(=O)c1ccccc1Cl)Nc1ccc(OC(F)(F)F)cc1", "tested-target": "MsmegMurG (Mycolicibacterium smegmatis)", "readout-label": "inhibition at 50 µM", "reported-value": 0}
{"smiles-string": "C=C(C/C=C(\\C)CCC=C(C)C)CCC(C)(C)/C=C/CC/C(C)=C\\CO[C@H](COP(=O)(O)O[C@H]1O[C@H](C(N)=O)[C@@](C)(O)[C@H](OC(N)=O)[C@H]1O[C@@H]1O[C@H](CO[C@@H]2O[C@H](CO)[C@@H](O)[C@H](O)[C@H]2O)[C@@H](O[C@@H]2O[C@H](C)[C@@H](O[C@@H]3O[C@H](C(=O)NC4=C(O)CCC4=O)[C@H](O)[C@H](O)[C@H]3O)[C@H](O)[C@H]2NC(C)=O)[C@H](O)[C@H]1NC(C)=O)C(=O)O", "tested-target": "MsmegMurG (Mycolicibacterium smegmatis)", "readout-label": "inhibition at 50 µM", "reported-value": 0}
{"smiles-string": "CN[C@H](CC(C)C)C(=O)N[C@H]1C(=O)N[C@@H](CC(N)=O)C(=O)N[C@H]2C(=O)N[C@H]3C(=O)N[C@H](C(=O)N[C@H](C(=O)O)c4cc(O)cc(O)c4-c4cc3ccc4O)[C@H](O)c3ccc(c(Cl)c3)Oc3cc2cc(c3O[C@@H]2O[C@H](CO)[C@@H](O)[C@H](O)[C@H]2O[C@H]2C[C@](C)(N)[C@H](O)[C@H](C)O2)Oc2ccc(cc2Cl)[C@H]1O", "tested-target": "MsmegMurG (Mycolicibacterium smegmatis)", "readout-label": "inhibition at 50 µM", "reported-value": 67}
{"smiles-string": "C[C@@H]([C@H](N)C(=O)N[C@H](C(=O)O)[C@H]1O[C@@H](n2ccc(=O)[nH]c2=O)[C@H](O)[C@@H]1O)[C@H](O)c1ccc(O)cn1", "tested-target": "MsmegMurG (Mycolicibacterium smegmatis)", "readout-label": "inhibition at 50 µM", "reported-value": 45}

* * *

- tested-target: HyMurG (Hydrogenivirga sp. 128-5-R1-1)
- Sequence (A8US35 1-350): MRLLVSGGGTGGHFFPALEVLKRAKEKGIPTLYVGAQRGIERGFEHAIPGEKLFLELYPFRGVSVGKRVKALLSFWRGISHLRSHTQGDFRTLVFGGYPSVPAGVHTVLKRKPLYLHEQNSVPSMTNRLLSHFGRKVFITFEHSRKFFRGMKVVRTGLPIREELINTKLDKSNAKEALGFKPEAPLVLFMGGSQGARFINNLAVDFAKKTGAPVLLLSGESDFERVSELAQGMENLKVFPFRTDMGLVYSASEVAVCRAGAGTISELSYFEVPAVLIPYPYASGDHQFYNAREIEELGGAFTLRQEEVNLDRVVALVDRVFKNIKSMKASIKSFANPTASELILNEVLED
- protocol-notes: UV-Vis-based MurG assay
- Format: biochemical
- test-parameters: 50–100 μM
readout-label: Inhibition of MurG function / lipid II formation

{"smiles-string": "O=C(NC(=O)c1ccccc1Cl)Nc1ccc(OC(F)(F)F)cc1", "reported-value": "did not inhibit"}
{"smiles-string": "CO[C@H]1[C@@H](O)[C@H](n2ccc(=O)[nH]c2=O)O[C@@H]1[C@@H](O[C@H]1OC(C(=O)N[C@H]2CCCCNC2=O)=C[C@H](O)[C@@H]1O)C(N)=O", "reported-value": "did not inhibit"}
{"smiles-string": "C=C(C/C=C(\\C)CCC=C(C)C)CCC(C)(C)/C=C/CC/C(C)=C\\CO[C@H](COP(=O)(O)O[C@H]1O[C@H](C(N)=O)[C@@](C)(O)[C@H](OC(N)=O)[C@H]1O[C@@H]1O[C@H](CO[C@@H]2O[C@H](CO)[C@@H](O)[C@H](O)[C@H]2O)[C@@H](O[C@@H]2O[C@H](C)[C@@H](O[C@@H]3O[C@H](C(=O)NC4=C(O)CCC4=O)[C@H](O)[C@H](O)[C@H]3O)[C@H](O)[C@H]2NC(C)=O)[C@H](O)[C@H]1NC(C)=O)C(=O)O", "reported-value": "did not inhibit"}
{"smiles-string": "CO[C@H]1[C@@H](OC)[C@H](n2ccc(=O)[nH]c2=O)O[C@@H]1[C@@H](O[C@H]1OC(C(=O)N[C@H]2CCCCNC2=O)=C[C@H](O)[C@@H]1O)C(N)=O", "reported-value": "did not inhibit"}
